// provenance: patent US6949585B2

# Tested on: TNF-α production
# assayExplanation: TNF-α production by LPS-stimulated human peripheral blood monocytes (ELISA)
# Type: cell-based
# conditionSet: Monocyte, LPS 10 ng/ml, 18 h, compound 0.1-100 μM
pIC50: −log10 of the molar value.
Class Yes: pIC50 at least 5. Class No: pIC50 below 5.

Determine whether measured pIC50 meets or exceeds 5 for O=C1/C=C\CCC(Cc2ccccc2)CCCC1 (stereo not drawn)
No

Determine whether measured pIC50 meets or exceeds 5 for O=C1C=CCC(CCc2ccccc2O)C[C@@H](O)[C@H]1O (mixture of isomers)
Yes

Determine whether measured pIC50 meets or exceeds 5 for O=C1C=CCC(CCc2cccc(O)c2)CCC1 (stereo not drawn)
Yes

Determine whether measured pIC50 meets or exceeds 5 for O=C(OC1CC=CC(=O)[C@H](O)[C@H](O)C1)c1ccccc1O (mixture of isomers)
Yes

Next molecule, please.
Determine whether measured pIC50 meets or exceeds 5 for O=C(OC1CC/C=C\C(=O)[C@H](O)[C@H](O)CC1)c1ccccc1O (mixture of isomers)
Yes

----------
# System: IL-6 production
# assayExplanation: IL-6 production by LPS-stimulated human peripheral blood monocytes (ELISA)
# Format: cell-based
# conditionSet: Monocyte, LPS 10 ng/ml, 18 h, compound 0.1-100 μM
# Procedure: TNF-α and IL-6 production inhibitory activity of the compound of the present invention was evaluated by determining the amounts of TNF-α and IL-6 produced by the human peripheral blood monocyte stimulated with lipopolysaccharide(LPS). […] The amount of each of TNF-α and IL-6, which were released in the culture supernatant, was measured using an ELISA kit (R & D). […]
endpointLabel: pIC50
// pIC50 here means minus log10 of the molar concentration (mol/L)

Give recorded pIC50 with IL-6 production for the following compound: O=C1C=CCC(CCc2ccccc2)CCC1 (stereo not drawn)
4.67

Further cases:
Give recorded pIC50 with IL-6 production for the following compound: O=C1C=CCC(Cc2ccccc2)CCC1 (stereo not drawn)
4.63

Give recorded pIC50 with IL-6 production for the following compound: O=C1C=CCC(CCc2cccc(O)c2)CCC1 (stereo not drawn)
5.17

----------
A collection of molecules and their measured IC50
# Tested on: TNF-α production
# assayExplanation: TNF-α production by LPS-stimulated human peripheral blood monocytes (ELISA)
# Format: cell-based
# conditionSet: Monocyte, LPS 10 ng/ml, 18 h, compound 0.1-100 μM
State the value with its unit after it.

Please review the following examples before continuing.
Fill blank: measured IC50 of the molecule O=C1C=CCC(CCc2ccccc2)C[C@@H](O)[C@H]1O (mixture of isomers) is ____.
8.8 µM

Fill blank: measured IC50 of the molecule O=C1C=CCC(Cc2ccccc2)CCC1 (stereo not shown) is ____.
13.6 µM

Fill blank: measured IC50 of the molecule O=C1/C=C\CCC(Cc2ccccc2)CC[C@@H](O)[C@H]1O (mixture of isomers) is ____.
12.4 µM

Next, consider the following molecule.
Fill blank: measured IC50 of the molecule O=C1C=CCC(CCc2ccccc2)CCC1 (stereo not shown) is ____.
13.7 µM
